- Protocol notes: Acute toxicity on white rats, administered orally
- Test parameters: rat, in vivo, po
Below: a set of entries, each annotated with reported LD50.
Output spec: scalar in mg/kg, unitless text.

Field: example entries. Status: answers known.
molecule=CNC(=O)Oc1cccc(NCC=C(Cl)Cl)c1 uom=mg/kg observed_result=100
molecule=CNC(=O)Oc1ccc(C)c(NCC(Cl)=C(Cl)Cl)c1 uom=mg/kg observed_result=100
molecule=CNC(=O)Oc1ccc(C)c(NCC=C(Cl)Cl)c1 uom=mg/kg observed_result=100

// query What measured LD50 goes with CNC(=O)Oc1ccc(N(C)C)c(C)c1 [Aminocarb, reference compound] ?
// result 30
